The entries below are paired with their reported IC50.
target: BTK (C481S) (Homo sapiens (Human), UniProt Q06187, C481S); assay: BTK C481S enzyme experiment (ADP-Glo kinase assay); details: 10 nM BTK C481S, ATP 125 μM, Poly(Glu4, Tyr1), 90 minutes at 20° C.
Sequence (Q06187 whole entry C481S): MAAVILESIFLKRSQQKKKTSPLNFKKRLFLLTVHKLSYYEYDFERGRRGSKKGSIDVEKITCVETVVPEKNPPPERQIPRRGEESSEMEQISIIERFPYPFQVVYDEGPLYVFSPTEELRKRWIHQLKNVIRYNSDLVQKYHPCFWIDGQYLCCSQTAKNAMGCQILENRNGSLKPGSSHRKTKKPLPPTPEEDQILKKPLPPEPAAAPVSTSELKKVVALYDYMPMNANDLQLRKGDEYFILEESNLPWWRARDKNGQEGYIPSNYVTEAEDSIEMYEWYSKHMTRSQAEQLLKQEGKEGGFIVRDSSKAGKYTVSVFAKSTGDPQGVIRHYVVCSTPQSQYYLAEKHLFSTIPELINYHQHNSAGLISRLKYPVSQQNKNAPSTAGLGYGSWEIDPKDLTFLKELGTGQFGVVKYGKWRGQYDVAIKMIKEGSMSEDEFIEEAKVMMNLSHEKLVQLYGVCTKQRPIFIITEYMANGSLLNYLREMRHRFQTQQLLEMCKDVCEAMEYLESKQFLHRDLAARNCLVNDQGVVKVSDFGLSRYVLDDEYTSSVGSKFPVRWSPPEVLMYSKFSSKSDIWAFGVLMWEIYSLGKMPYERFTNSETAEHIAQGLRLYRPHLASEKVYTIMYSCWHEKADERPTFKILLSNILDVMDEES
Give just the number in nM; leave the unit off.

Below, each entry is followed by its recorded IC50 result.
[2H]C([2H])([2H])OC[C@]1(C)Nc2c(cnc3[nH]cc(C(=O)c4ccc(Oc5ccccc5)cc4Cl)c23)N(C([2H])([2H])[2H])C1=O [Z193] : 21.9
O=C(c1ccc(Oc2ccccc2)cc1Cl)c1c[nH]c2ncc3c(c12)N[C@]1(CCCOC1)C(=O)N3 (single isomer, unassigned) [Z16-1] : 9.1

Okay, next one:
Request the reported IC50 associated with COC1CCC2(C1)Nc1c(cnc3[nH]cc(C(=O)c4ccc(Oc5ccccc5)cc4Cl)c13)NC2=O (single isomer, unassigned) [Z25-3b] 10

---

Here's what we have: pIC50 numbers for BTK (Homo sapiens (Human), UniProt Q06187).
Structures can show the parent of a compound that is named as a salt.
// pIC50 here means minus log10 of the molar concentration (mol/L)

Below, each entry is followed by its recorded pIC50 result.
C[C@@]1(CO)Nc2c(cnc3[nH]cc(C(=O)c4ccc(Oc5ccccc5)cc4Cl)c23)NC1=O (single isomer, unassigned) [Z9-2] : 8.02
COCC1(C)Nc2c(cnc3[nH]cc(C(=O)c4ccc(Oc5cc(C)ccn5)cc4F)c23)NC1=O (single isomer, unassigned) [Z69-1] : 7.86
COCC1(C)Nc2c(cnc3[nH]cc(C(=O)c4ccc(Oc5cc(C)ccn5)cc4Cl)c23)N(C)C1=O (centres unmarked) [Z65, formate] : 7.51
COC1CCC2(C1)Nc1c(cnc3[nH]cc(C(=O)c4ccc(Oc5ccccc5)cc4Cl)c13)NC2=O (single isomer, unassigned) [Z25-3a] : 7.81
[2H]C([2H])([2H])N1C(=O)[C@](C)(COC)Nc2c1cnc1[nH]cc(C(=O)c3ccc(Oc4ccccc4)cc3Cl)c21 [Z190] : 7.79
COC[C@]1(C)Nc2c(cnc3[nH]cc(C(=O)c4ccc(Oc5ccccc5)cc4Cl)c23)NC1=O [Z13-1] : 7.94
COC[C@]1(C)Nc2c(cnc3[nH]cc(C(=O)c4ccccc4Cl)c23)N=C1SC [Z199] : 7.37
CN1CC2(C1)Nc1c(cnc3[nH]cc(C(=O)c4ccc(Oc5ccccc5)cc4Cl)c13)NC2=O [Z11] : 7.26
[2H]C([2H])([2H])OC[C@]1(C)Nc2c(cnc3[nH]cc(C(=O)c4ccc(Cn5nccc5C)cc4Cl)c23)NC1=O [Z175] : 7.13
CC(=O)N1CC[C@]2(C1)Nc1c(cnc3[nH]cc(C(=O)c4ccc(Oc5ccccc5)cc4Cl)c13)NC2=O (single isomer, unassigned) [Z4-1] : 7.77

Tell me reported pIC50 for COCC1(C)Nc2c(cnc3[nH]cc(C(=O)c4ccc(Oc5ccccc5)cc4F)c23)NC1=O (centres unmarked) [Z71] , tested with BTK (Homo sapiens (Human), UniProt Q06187). 7.69

Tell me reported pIC50 for COC[C@]1(C)Nc2c(cnc3[nH]cc(C(=O)c4c(F)cccc4Cl)c23)NC1=O [Z196] , tested with BTK (Homo sapiens (Human), UniProt Q06187). 7.58

Tell me reported pIC50 for CN1CC[C@]2(C1)Nc1c(cnc3[nH]cc(C(=O)c4ccc(Oc5ccccc5)cc4Cl)c13)NC2=O (single isomer, unassigned) [Z2-1] , tested with BTK (Homo sapiens (Human), UniProt Q06187). 7.72

src = patent US20240360154A1
